Where these numbers come from: patent US20150359884A1

- Procedure Summary: Fluorescence lifetimes in solvents, two-photon excitation with TCSPC
- Type: physicochemical
- Measurement Context: EtOH, 20° C., two-photon excitation 620-630 nm; ne = non-exponential
Quantity: Fluorescence lifetime τ

[
  {
    "Chemical Structure": "COc1cc(/C=C/c2ccc(N(C)C)cc2)cc(OC)c1OC",
    "Quantity": "Fluorescence lifetime τ",
    "Measured": "ne"
  },
  {
    "Chemical Structure": "COc1ccc(/C=C/c2cc(OC)c(OC)c(OC)c2)cc1O",
    "Quantity": "Fluorescence lifetime τ",
    "Measured": "0.28 ns"
  },
  {
    "Chemical Structure": "COc1ccc(/C=C/c2cc(OC)c(OC)c(OC)c2)cc1F",
    "Quantity": "Fluorescence lifetime τ",
    "Measured": "0.48 ns"
  },
  {
    "Chemical Structure": "COc1ccc(/C=C/c2cc(OC)c(OC)c(OC)c2)cc1N",
    "Quantity": "Fluorescence lifetime τ",
    "Measured": "ne"
  }
]
